- measurement-notes: Quantitative highthroughput screen to assess conditional lethalithy of P12 Ichikawa cells grown in Human Plasma-Like Medium with dialyzed fetal bovine serum (HPLM+ds) (AID 1963879); further: nearly all actives have a fitted effect of over 35% in size
- condition-description: ATP luminescence, 48 h; viability; series mostly up to 45.8 µM
Records with an inconclusive call do not appear. Active and inactive are the calls of the source. The call rests on the fitted dose curve; in most records, active means well fitted cell-killing curve with a large enough effect; inconclusive means small, poorly fitted or top-dose-only effect; inactive means flat fitted curve, though single readings scatter.
Labels: active, inactive

INSERT INTO results (compound, assigned_category) VALUES
  ('O=C(O)Cn1nnc(-c2cc(N3CCC(Oc4cc(F)ccc4Br)CC3)no2)n1', 'active'),
  ('N#Cc1c(O)c2c(-c3ccc(-c4ccccc4O)cc3)csc2[nH]c1=O', 'inactive'),
  ('CCC(C)N(C)C(=O)c1cc2ccccc2c(-c2ccccc2Cl)n1 (stereo not drawn)', 'inactive'),
  ('COC1=C(OC)C(=O)C(CCCCCCCCCCO)=C(C)C1=O', 'inactive'),
  ('Cc1cc(Nc2ncc3c(n2)N(C)C(=O)N(c2cc(NC(=O)c4cccc(C(F)(F)F)c4)ccc2C)C3)n(C)n1', 'active'),
  ('C[N+](C)([O-])CCNc1ccc(NCC[N+](C)(C)[O-])c2c1C(=O)c1c(O)ccc(O)c1C2=O', 'active'),
  ('CC(C)C1CCC(C(=O)N[C@H](Cc2ccccc2)C(=O)O)CC1 (stereo partly drawn)', 'inactive'),
  ('CNC1CCCN(c2c(F)cc3c(=O)c(C(=O)O)cn(C4CC4)c3c2OC)C1 (stereo not drawn)', 'inactive'),
  ('CCc1cc(C(N)=S)ccn1', 'active'),
  ('CC(C=CC1=C(C)CCCC1(C)C)=CC=CC(C)=CC(=O)Nc1ccc(O)cc1', 'active'),
  ('COc1cc(OC)cc(-c2ccc3ncc4ccc(=O)n(-c5ccc(N6CCNCC6)c(C(F)(F)F)c5)c4c3c2)c1', 'active'),
  ('CC1(C)[C@H]2CC[C@]3(C)[C@@H](C(=O)C=C4[C@@H]5C[C@@](C)(C(=O)O)CC[C@]5(C)CC[C@]43C)[C@@]2(C)CC[C@@H]1O', 'inactive'),
  ('Cn1cc(-c2ccc3nnc(Sc4ccc5ncccc5c4)n3n2)cn1', 'inactive'),
  ('c1ccc(-c2nn3c(c2-c2ccnc4cc(OCCN5CCOCC5)ccc24)CCC3)nc1', 'inactive'),
  ('CC(C)(C)COc1ccc(-n2cc(C(=O)O)cn2)cc1C#N', 'inactive'),
  ('CC1CCN(c2cc(N3CCN(C)CC3)ccc2NC(=O)c2cc(C#N)c[nH]2)CC1', 'inactive'),
  ('CO[C@@H]1[C@@H](O)[C@H](O)[C@@H](n2c3c(Cl)cccc3c3c4c(c5c6cccc(Cl)c6[nH]c5c32)C(=O)NC4=O)O[C@@H]1CO', 'active'),
  ('COc1cc(Nc2ncc3c(n2)-c2ccc(Cl)cc2C(c2c(F)cccc2OC)=NC3)ccc1C(=O)O', 'active'),
  ('CC(=O)Nc1cccc(-n2c(=O)n(C3CC3)c(=O)c3c(Nc4ccc(I)cc4F)n(C)c(=O)c(C)c32)c1', 'active'),
  ('CC#C[C@]1(O)CC[C@H]2[C@@H]3CCC4=CC(=O)CCC4=C3[C@@H](c3ccc(N(C)C)cc3)C[C@@]21C', 'active'),
  ('COC(=O)Nc1ccc(-c2nc(N3CCOCC3)c3cnn(C4CCN(Cc5cccnc5)CC4)c3n2)cc1', 'active'),
  ('COC(=O)[C@H](c1ccccc1Cl)N1CCc2sccc2C1', 'active'),
  ('C[C@@H]1[C@H](C)CC[C@]2(C(=O)O)CC[C@]3(C)C(=CC[C@@H]4[C@@]5(C)CC[C@H](O)C(C)(C)[C@H]5CC[C@]43C)[C@@H]12', 'inactive'),
  ('CC(=O)[C@H]1CC[C@H]2[C@@H]3CCC4=CC(=O)CC[C@]4(C)[C@H]3CC[C@]12C', 'inactive'),
  ('CNc1nc(Nc2ccc(C(=O)N3CCOCC3)cc2OC)ncc1Cl', 'inactive'),
  ('CN[C@H]1[C@@H](O)[C@@H]2O[C@@H]3O[C@H](C)CC(=O)[C@]3(O)O[C@@H]2[C@@H](NC)[C@H]1O', 'inactive'),
  ('CCOC1OC(=O)C[C@H]1NC(=O)[C@@H]1CCCN1C(=O)[C@@H](NC(=O)c1ccc(N)c(Cl)c1)C(C)(C)C (stereo partly drawn)', 'active'),
  ('Cn1c(=O)c2c(ncn2CC(O)CO)n(C)c1=O (stereo not drawn)', 'inactive'),
  ('CC(C)(C)c1cc(NC(=O)Nc2ccc(-c3cn4c(n3)sc3cc(OCCN5CCOCC5)ccc34)cc2)no1', 'inactive'),
  ('COc1ccc2c(c1OC)C(=O)OC2[C@H]1c2c(cc3c(c2OC)OCO3)CCN1C (stereo partly drawn)', 'active'),
  ('COc1ccc2c(Oc3ccc(NC(=O)c4c(C)n(CC(C)(C)O)n(-c5ccccc5)c4=O)cc3F)ccnc2c1', 'inactive'),
  ('CCC(=C(CC)c1ccc(O)cc1)c1ccc(O)cc1', 'inactive'),
  ('CC(C)(C)c1nc(-c2cccc(NS(=O)(=O)c3c(F)cccc3F)c2F)c(-c2ccnc(N)n2)s1', 'inactive');

---

- measurement-notes: Quantitative highthroughput screen to assess conditional lethalithy of NOMO1 cells grown in RPMI1640 with dialyzed fetal bovine serum (RPMI+ds) (AID 1963877); further: nearly all actives have a fitted effect of over 30% in size
- condition-description: NOMO1 in RPMI+dialyzed FBS viability, ATP luminescence, 48 h; series mostly up to 45.8 µM
Results filed as inconclusive are left out. Active and inactive are the calls of the source. The call rests on the fitted dose curve; in most records, active means well fitted cell-killing curve with a large enough effect; inconclusive means small, poorly fitted or top-dose-only effect; inactive means flat fitted curve, though single readings scatter.
Possible outcomes: active, inactive

INSERT INTO results (compound, assigned_category) VALUES
  ('CN1C[C@H]2c3ccccc3Oc3ccc(Cl)cc3[C@@H]2C1', 'inactive'),
  ('NCCCC(N)(C(=O)O)C(F)F (configuration not stated)', 'inactive'),
  ('CC(=O)NC(C)c1ccc(Oc2ccc(OC(C)C)cc2)cc1 (configuration not stated)', 'inactive'),
  ('NS(=O)(=O)c1cccc2c1C(=O)c1cccc(O)c1C2=O', 'active'),
  ('CCN(C(=O)c1c(O)c2c(Cl)cccc2n(C)c1=O)c1ccccc1', 'active'),
  ('Oc1ccc2ccccc2c1SSc1c(O)ccc2ccccc12', 'inactive'),
  ('NC(=O)c1ccc(-c2nc(-c3ccc4c(c3)OCCO4)c(-c3ccccn3)[nH]2)cc1', 'inactive'),
  ('COCCCOc1ccnc(CS(=O)c2nc3ccccc3[nH]2)c1C (configuration not stated)', 'inactive'),
  ('CC(C(=O)O)c1ccc(-c2ccccc2)c(F)c1 (configuration not stated)', 'inactive'),
  ('COc1ccc2c3c1OC1C[C@@H](O)C=C[C@@]31CCN(C)C2 (some centres not stated)', 'inactive'),
  ('COC(=O)[C@]12CCC(C)(C)C[C@@H]1[C@@H]1C(=O)C=C3[C@@]4(C)C=C(C#N)C(=O)C(C)(C)[C@@H]4CC[C@@]3(C)[C@]1(C)CC2', 'active'),
  ('O=C(O)c1cccnc1Nc1cccc(C(F)(F)F)c1', 'inactive'),
  ('O=c1c(-c2ccc(O)cc2)coc2cc(O)cc(O)c12', 'inactive'),
  ('CC(C)(O)Cn1c(NC(=O)c2ccc(-c3cn[nH]c3)s2)nc2cc(CN3CCOCC3)ccc21', 'active'),
  ('Fc1ccc(Cl)cc1-c1nc(Nc2ccncc2)c2nccnc2n1', 'inactive'),
  ('CO[C@@H]1C(N(C)C(=O)c2ccccc2)C[C@H]2O[C@]1(C)n1c3ccccc3c3c4c(c5c6ccccc6n2c5c31)C(=O)NC4=O (some centres not stated)', 'active'),
  ('Nc1ccn([C@@H]2O[C@H](CO)[C@H](O)C2(F)F)c(=O)n1', 'active'),
  ('COc1ccc(C=CC(=O)Nc2ccccc2C(=O)O)cc1OC', 'inactive'),
  ('COc1cc(Nc2c(C#N)cnc3cc(OCCCN4CCN(C)CC4)c(OC)cc23)c(Cl)cc1Cl', 'active'),
  ('CN(C)CCc1c[nH]c2ccc(C[C@H]3COC(=O)N3)cc12', 'active'),
  ('O=C(c1ccc(F)cc1)C1CCN(CCn2c(=O)[nH]c3ccccc3c2=O)CC1', 'inactive'),
  ('COC1CCC(N(C(=O)C2CCC(C)CC2)c2cc(C3=CCCCC3)sc2C(=O)O)CC1 (configuration not stated)', 'inactive'),
  ('COc1ccc(-c2coc3cc(O)cc(O)c3c2=O)cc1', 'inactive'),
  ('CC(C)NCC(O)c1ccc(NS(C)(=O)=O)cc1 (configuration not stated)', 'inactive'),
  ('CC(C=CC(=O)NO)=C[C@@H](C)C(=O)c1ccc(N(C)C)cc1', 'active'),
  ('CCOC(=O)[C@@H](N)CCC(=O)N[C@@H](CSCc1ccccc1)C(=O)N[C@@H](C(=O)OCC)c1ccccc1', 'inactive'),
  ('CC[C@@H]([C@H](C)O)n1ncn(-c2ccc(N3CCN(c4ccc(OCC5CO[C@@](Cn6cncn6)(c6ccc(F)cc6F)C5)cc4)CC3)cc2)c1=O (some centres not stated)', 'inactive'),
  ('CN(C)C/C=C/C(=O)Nc1ccc(C(=O)Nc2cccc(Nc3ncc(Cl)c(-c4c[nH]c5ccccc45)n3)c2)cc1', 'active'),
  ('CCNC(=O)Nc1ccc(Oc2ncnc(N)c2C=NOC)cc1Cl', 'inactive'),
  ('O=C(OC1C[C@H]2CC[C@@H](C1)[N+]21CCCC1)C(O)(c1ccccc1)c1ccccc1 (some centres not stated)', 'inactive'),
  ('CCCOc1ccc(C(=O)OCCN(CC)CC)cc1N', 'inactive'),
  ('Nc1ccc(S(=O)(=O)Nc2ncccn2)cc1', 'inactive');
